Origin of measurements: ChEMBL document CHEMBL1140072

subject.of.test: L-type calcium channel (Rattus norvegicus, UniProt P22002+P27732+Q02485)
assay.explanation: Displacement of [3H]diltiazem from L-type calcium channel in Sprague-Dawley rat cardiac myocytes at 10 uM
Format: cell-based
applied.conditions: probe [3H]diltiazem, read-out: Activity
outcome.measure: inhibition at 10 µM (%)
Numbers only, in %.

inhibition at 10 µM reading for `CN1CCN(S(=O)(=O)c2cccc3cccnc23)CC1` : 60
